Tested on: SK-ES-1
ASSAY INFO: relative viability vs DMSO control (72 h) (fraction); higher = more viable cells
EXPERIMENTAL SETUP: 0.3704 µM
Recorded relative viability values for a group of molecules are listed next.
I'd appreciate a reply containing only the number, no unit.

- STRUCTURE NOTATION: "Cc1ccc(NC(=O)c2ccc(CN3CCN(C)CC3)cc2)cc1Nc1nccc(-c2cccnc2)n1"
  relative viability: 0.97

## Task Which relative viability value belongs to "C[C@H]1Oc2cc(cnc2N)-c2c(nn(C)c2C#N)CN(C)C(=O)c2ccc(F)cc21" ?
## Result 1.03

## Task Which relative viability value belongs to "CNC(=O)c1cc(Oc2ccc(NC(=O)Nc3ccc(Cl)c(C(F)(F)F)c3)cc2)ccn1" ?
## Result 1.07

## Task Which relative viability value belongs to "CCCCCCCCCCCCCCCCCCOP(=O)([O-])OC1CC[N+](C)(C)CC1" ?
## Result 0.996

## Task Which relative viability value belongs to "COc1cc(OC)cc(N(CCNC(C)C)c2ccc3ncc(-c4cnn(C)c4)nc3c2)c1" ?
## Result 0.818

## Task Which relative viability value belongs to "FC(F)(F)c1ccc(CNc2ccc(Cc3c[nH]c4ncc(Cl)cc34)cn2)cn1" ?
## Result 1.03

## Task Which relative viability value belongs to "CCN(c1cc(-c2ccc(CN3CCOCC3)cc2)cc(C(=O)NCc2c(C)cc(C)[nH]c2=O)c1C)C1CCOCC1" ?
## Result 0.998

## Task Which relative viability value belongs to "N#Cc1ccnc(N2C(=O)CC[C@H]2C(=O)N(c2cncc(F)c2)[C@H](C(=O)NC2CC(F)(F)C2)c2ccccc2Cl)c1" ?
## Result 0.965

* * *

Tested on: RD
ASSAY INFO: relative viability vs DMSO control (72 h) (fraction); higher = more viable cells
EXPERIMENTAL SETUP: 0.1235 µM
OBSERVED PROPERTY: relative viability
I'd appreciate a reply containing only the number, no unit.

// known answers, use as guide
- STRUCTURE NOTATION: "Cc1cc(Nc2ncc(Cl)c(Nc3ccccc3S(=O)(=O)C(C)C)n2)c(OC(C)C)cc1C1CCNCC1"
  TARGET OR TEST SYSTEM: "RD"
  relative viability: 0.947
- STRUCTURE NOTATION: "COc1cc2ncnc(Nc3ccc(F)c(Cl)c3)c2cc1NC(=O)/C=C/CN1CCCCC1"
  TARGET OR TEST SYSTEM: "RD"
  relative viability: 1.12
- STRUCTURE NOTATION: "CCN(CCCOc1ccc2c(Nc3cc(CC(=O)Nc4cccc(F)c4)[nH]n3)ncnc2c1)CCOP(=O)(O)O"
  TARGET OR TEST SYSTEM: "RD"
  relative viability: 0.869
- STRUCTURE NOTATION: "Cc1ccc(NC(=O)c2ccc(CN3CCN(C)CC3)cc2)cc1Nc1nccc(-c2cccnc2)n1"
  TARGET OR TEST SYSTEM: "RD"
  relative viability: 0.95
- STRUCTURE NOTATION: "COc1cc2ncnc(Nc3cccc(Cl)c3F)c2cc1OC(=O)N1CCN(C)C[C@H]1C"
  TARGET OR TEST SYSTEM: "RD"
  relative viability: 1.09
- STRUCTURE NOTATION: "Cc1cn(-c2cc(NC(=O)c3ccc(C)c(Nc4nccc(-c5cnccn5)n4)c3)cc(C(F)(F)F)c2)cn1"
  TARGET OR TEST SYSTEM: "RD"
  relative viability: 1.13
- STRUCTURE NOTATION: "N#CCC1(n2cc(-c3ncnc4[nH]ccc34)cn2)CN(C2CCN(C(=O)c3ccnc(C(F)(F)F)c3F)CC2)C1"
  TARGET OR TEST SYSTEM: "RD"
  relative viability: 1.05
- STRUCTURE NOTATION: "COc1cc(Nc2c(C#N)cnc3cc(OCCCN4CCN(C)CC4)c(OC)cc23)c(Cl)cc1Cl"
  TARGET OR TEST SYSTEM: "RD"
  relative viability: 1.15
- STRUCTURE NOTATION: "C=CC(=O)Nc1cc(Nc2nccc(-c3cn(C)c4ccccc34)n2)c(OC)cc1N(C)CCN(C)C"
  TARGET OR TEST SYSTEM: "RD"
  relative viability: 1.1
- STRUCTURE NOTATION: "Cc1cccc(-c2[nH]c(CNc3ccccc3F)nc2-c2ccc3ncnn3c2)n1"
  TARGET OR TEST SYSTEM: "RD"
  relative viability: 1.07

## Task Which relative viability value belongs to "Cc1nc(Nc2ncc(C(=O)Nc3c(C)cccc3Cl)s2)cc(N2CCN(CCO)CC2)n1" ?
## Result 0.536

## Task Which relative viability value belongs to "CN1CCN(CCOc2cc(OC3CCOCC3)c3c(Nc4c(Cl)ccc5c4OCO5)ncnc3c2)CC1" ?
## Result 0.948

* * *

Tested on: SYO-1
ASSAY INFO: relative viability vs DMSO control (72 h) (fraction); higher = more viable cells
EXPERIMENTAL SETUP: 0.00457 µM
Lab note - cut at 1 for relative viability: label 1 if strictly below, label 0 if not.

- COMPOUND: "CN1CCN(CCOc2cc(OC3CCOCC3)c3c(Nc4c(Cl)ccc5c4OCO5)ncnc3c2)CC1"
  TARGET OR TEST SYSTEM: "SYO-1"
  ASSIGNED CLASS: "label 1"
- COMPOUND: "N#CCC1(n2cc(-c3ncnc4[nH]ccc34)cn2)CN(C2CCN(C(=O)c3ccnc(C(F)(F)F)c3F)CC2)C1"
  TARGET OR TEST SYSTEM: "SYO-1"
  ASSIGNED CLASS: "label 1"
- COMPOUND: "COc1cc2nccc(Oc3ccc(NC(=O)C4(C(=O)Nc5ccc(F)cc5)CC4)cc3)c2cc1OC [Cabozantinib]"
  TARGET OR TEST SYSTEM: "SYO-1"
  ASSIGNED CLASS: "label 1"

Now let's try a different one.
## Task Regarding "COc1cc(Nc2c(C#N)cnc3cc(OCCCN4CCN(C)CC4)c(OC)cc23)c(Cl)cc1Cl" , kindly confirm whether its relative viability is beneath 1.
## Result label 0

* * *

System: SK-ES-1
ASSAY INFO: relative viability vs DMSO control (72 h) (fraction); higher = more viable cells
EXPERIMENTAL SETUP: 0.00017 µM
Lab note - cut at 1 for relative viability: fulfilled if strictly below, not fulfilled if not.

- STRUCTURE NOTATION: "CN(C)C[C@@H]1CCn2cc(c3ccccc32)C2=C(C(=O)NC2=O)c2cn(c3ccccc23)CCO1"
  ASSIGNED CLASS: "not fulfilled"
- STRUCTURE NOTATION: "CCCS(=O)(=O)N[C@H]1C[C@@H](N(C)c2ncnc3[nH]ccc23)C1"
  ASSIGNED CLASS: "not fulfilled"
- STRUCTURE NOTATION: "COc1cc2c(Oc3ccc4[nH]c(C)cc4c3F)ccnc2cc1OCC1(N)CC1"
  ASSIGNED CLASS: "not fulfilled"

## Task Regarding "COc1cc2ncnc(Nc3cccc(Cl)c3F)c2cc1OC(=O)N1CCN(C)C[C@H]1C" , kindly confirm whether its relative viability is beneath 1.
## Result not fulfilled

## Task Regarding "Cc1ccc(NC(=O)c2ccc(CN3CCN(C)CC3)cc2)cc1Nc1nccc(-c2cccnc2)n1" , kindly confirm whether its relative viability is beneath 1.
## Result fulfilled

## Task Regarding "FC(F)(F)c1ccc(CNc2ccc(Cc3c[nH]c4ncc(Cl)cc34)cn2)cn1" , kindly confirm whether its relative viability is beneath 1.
## Result not fulfilled

* * *

Tested on: KHOS-NP
ASSAY INFO: relative viability vs DMSO control (72 h) (fraction); higher = more viable cells
EXPERIMENTAL SETUP: 0.00457 µM
Recorded relative viability values for a group of compounds are listed next.
I'd appreciate a reply containing only the number, no unit.

// known answers, use as guide
- COMPOUND: "CCCCCCCCCCCCCCCCCCOP(=O)([O-])OC1CC[N+](C)(C)CC1 [Perifosine]"
  relative viability: 1.11
- COMPOUND: "NC(=O)c1cccc2cn(-c3ccc([C@@H]4CCCNC4)cc3)nc12 [Niraparib]"
  relative viability: 1.06

## Task Which relative viability value belongs to COc1cc2ncnc(Nc3cccc(Cl)c3F)c2cc1OC(=O)N1CCN(C)C[C@H]1C [AZD-3759] ?
## Result 1.1

## Task Which relative viability value belongs to Cc1cc(Nc2ncc(Cl)c(Nc3ccccc3S(=O)(=O)C(C)C)n2)c(OC(C)C)cc1C1CCNCC1 [Ceritinib] ?
## Result 1.06

## Task Which relative viability value belongs to C1=N/C2=N/c3ccc(OCCN4CCCC4)c(c3)COC/C=C/COCc3cccc(c3)C(=C1)N2 [Pacritinib] ?
## Result 1.11
